Test: Pharmacokinetics after oral administration in female rats
Conditions: rat, in vivo, 24 hours, 80 mg/kg oral in aqueous CMC, read-out: plasma concentration
Quantity measured: concentration at 24 h (ng/mL)
Numbers only, in ng/mL.

Query: Supply reported concentration at 24 h belonging to this compound: COc1ccc(C(CC(N)=O)N2Cc3ccccc3C2=O)cc1OC (racemic) [Racemic Compound]
Result: 9.2

* * *

Assay: Pharmacokinetics after oral administration in female rats
Conditions: rat, in vivo, 0 hour, 80 mg/kg oral in aqueous CMC, read-out: plasma concentration
Quantity measured: concentration at 0 h (ng/mL)
Numbers only, in ng/mL.

Query: Return concentration at 0 h (reported value) for this molecule: COc1ccc(C(CC(N)=O)N2Cc3ccccc3C2=O)cc1OC (racemic) [Racemic Compound]
Result: 0
